test system: Vero E6 infected with SARS-CoV-2; assay: inhibition of SARS-CoV-2 cytopathic effect; higher = more antiviral protection, active = above 15; settings: 10000 nM; 48 h
Recorded inhibition of SARS-CoV-2 cytopathic effect for the following molecules
Numeric answer only, unit % assumed.

molecule	systemUnderTest	obsValue
CCc1cc2c(cc1CC)CC(NC[C@H](O)c1ccc(O)c3[nH]c(=O)ccc13)C2 [indacaterol]	Vero E6 infected with SARS-CoV-2	-2.01

Q: // query inhibition of SARS-CoV-2 cytopathic effect value for entry CC(=O)/N=c1/[nH]c(C)c(-c2ccc(Cl)c(S(=O)(=O)NCCO)c2)s1
Ans: 2.47

Q: How about this molecule: Cc1cnc(C(=O)NCCc2ccc(S(=O)(=O)NC(=O)NC3CCCCC3)cc2)cn1 [glipizide]
Ans: 0.54

Q: Would you mind doing CSc1nc2ccc3nc(NC(=O)C(c4ccccc4)c4ccccc4)sc3c2s1 as well?
Ans: -1.25
